target: purified catalytic domain of recombinant human TACE (rhTACEc) (Homo sapiens, UniProt P78536, N452Q/S266A); construct: 6xHis (C); made in house; host or cells: baculovirus/Hi5 insect cells; test: TACE kinetic assay: cleavage of internally quenched peptide substrate TNF-FRET 2 (Ki); format: biochemical; conditions: TNF-FRET 2 substrate, read-out: Ki
Sequence (P78536 215-477 S266A/N452Q): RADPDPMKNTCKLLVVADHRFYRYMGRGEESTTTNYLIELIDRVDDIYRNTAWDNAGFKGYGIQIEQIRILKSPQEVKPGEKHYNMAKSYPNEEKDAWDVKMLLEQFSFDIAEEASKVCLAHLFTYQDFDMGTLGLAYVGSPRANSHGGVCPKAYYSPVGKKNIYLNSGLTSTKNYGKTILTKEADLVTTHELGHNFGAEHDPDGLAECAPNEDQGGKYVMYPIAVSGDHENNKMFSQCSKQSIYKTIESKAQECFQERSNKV
MEASURED_PARAMETER: pKi
Conceptually, pKi converts a concentration in mol/L into minus its log10.

COMPOUND	pKi
COc1ccc2c(c1)C(=O)N(C[C@@]1(c3cc4cnc(C#N)cc4o3)NC(=O)NC1=O)C2 [Compound 322]	9.17

Which pKi value belongs to COc1ccc2c(c1)C(=O)N(C[C@@]1(c3cc4cc(-c5cncc(O)c5)ncc4o3)NC(=O)NC1=O)C2 [Compound 2244] ? 9.46

====

target: purified catalytic domain of recombinant human TACE (rhTACEc) (Homo sapiens, UniProt P78536, N452Q/S266A); construct: 6xHis (C); made in house; host or cells: baculovirus/Hi5 insect cells; assay: TACE kinetic assay: cleavage of internally quenched peptide substrate TNF-FRET 2 (Ki); assay type: biochemical; conditions: TNF-FRET 2 substrate, read-out: Ki
MEASURED_PARAMETER: pKi
Conceptually, pKi converts a concentration in mol/L into minus its log10.

Field: example entries. Status: answers known.
COMPOUND	pKi
COc1ccc2c(c1)C(=O)N(C[C@@]1(c3cc4cc5c(cc4o3)[C@@H](N)CC5)NC(=O)NC1=O)C2	9.28
COc1ccc2c(c1)C(=O)N(C[C@@]1(c3cc4nc(N5CCCC5)ccc4o3)NC(=O)NC1=O)C2	9.37
COC(=O)c1ccc2oc([C@]3(CN4Cc5ccc(OC)c(F)c5C4=O)NC(=O)NC3=O)cc2n1	9.32
COc1ccc2c(c1F)C(=O)N(C[C@@]1(c3cc4ccc(NC(C)=O)nc4o3)NC(=O)NC1=O)C2	9.25
COc1ccc2c(c1F)C(=O)N(C[C@@]1(c3cc4cc(F)c5c(c4o3)CNC5=O)NC(=O)NC1=O)C2	9.07

Which pKi value belongs to COc1ccc2c(c1)C(=O)N(C[C@@]1(c3cc4c(-c5cccnc5)nccc4o3)NC(=O)NC1=O)C2 ? 9.42

Which pKi value belongs to COc1ccc2c(c1)C(=O)N(C[C@@]1(c3ccc(-c4ccc(C5(C)NC(=O)NC5=O)cc4)cc3)NC(=O)NC1=O)C2 (some centres unmarked) ? 9.18

Which pKi value belongs to COc1ccc2c(c1)C(=O)N(C[C@@]1(c3cc4cc(CNCCN)ccc4o3)NC(=O)NC1=O)C2 ? 9.15

Which pKi value belongs to COc1ccc2c(c1)C(=O)N(C[C@@]1(c3cc4cnc(C5=NCCN5)cc4o3)NC(=O)NC1=O)C2 ? 9.91

Which pKi value belongs to COc1ccc2c(c1F)C(=O)N(C[C@@]1(c3cc4nc(Nc5cncc(F)c5)ccc4o3)NC(=O)NC1=O)C2 ? 9.15

====

test: Area under the curve determinations of plasma levels in rats (rrAUC), oral 10 mg/kg; format: in vivo; conditions: rat, plasma 0.5-6 h post-dosing, read-out: RR AUC (rapid rat AUC, rrAUC)
Label key: Met means AUC under 0.4 µM·h; Not met means AUC of 0.4 µM·h or more.

Take a look at these entries with their results.
MOLECULE	ANSWER_LABEL
COc1ccc2c(c1)C(=O)N(C[C@@]1(c3cc4nc(NC(=O)c5ccncc5)ccc4o3)NC(=O)NC1=O)C2 [Compound 2135]	Not met
COc1ccc2c(c1)C(=O)N(C[C@@]1(c3cc4nc(N5CCC[C@@H](O)C5)ccc4o3)NC(=O)NC1=O)C2 [Compound 2170]	Not met
COc1ccc2c(c1)C(=O)N(C[C@@]1(c3cc4cc(C(=O)NCCN(C)C)c(F)cc4o3)NC(=O)NC1=O)C2 [Compound 1273]	Met

Confirm or reject: AUC of COc1ccc2c(c1)C(=O)N(C[C@@]1(c3cc4cc(-c5ccc(N)nc5)c(F)cc4o3)NC(=O)NC1=O)C2 [Compound 1188] lies strictly below 0.4 µM·h Met

Confirm or reject: AUC of COc1ccc2c(c1F)C(=O)N(C[C@@]1(c3cc4cccnc4o3)NC(=O)NC1=O)C2 [Compound 2271] lies strictly below 0.4 µM·h Not met

Confirm or reject: AUC of COc1ccc2c(c1F)C(=O)N(C[C@@]1(c3cc4nc(-c5ccncc5)ccc4o3)NC(=O)NC1=O)C2 [Compound 2122] lies strictly below 0.4 µM·h Not met

Confirm or reject: AUC of COc1ccc2c(c1)C(=O)N(C[C@@]1(c3cc4nc(N5C(=O)CCC5C)ccc4o3)NC(=O)NC1=O)C2 (stereo partly shown) [Compound 2161] lies strictly below 0.4 µM·h Not met
